# Tested on: SK-MEL-5
# Protocol: NCI tumour cell line growth inhibition, 48 h
Active and inactive are the calls of the source. No stated cut-off is given here; in the data, active = GI50 up to about 1.1 µM and inactive = higher.
Value Kind: GI50

input: Return reported GI50; argument: N#CC1=C(N)Nc2nc3ccccc3n2C1c1ccccc1 (stereo not given)
output: 37.6 µM (inactive)

input: Return reported GI50; argument: O=C1C(=O)c2cc([N+](=O)[O-])ccc2-c2ccc([N+](=O)[O-])cc21
output: 1.92 µM (inactive)

input: Return reported GI50; argument: Cc1cccc2c(N)c3cccc(C(=O)NCC[N+](C)(C)Cc4ccc([N+](=O)[O-])n4C)c3nc12
output: 21.7 µM (inactive)

input: Return reported GI50; argument: C/C(CC(=O)NCCc1ccccc1)=N\NS(=O)(=O)c1ccc(C)cc1
output: > 100 µM (inactive)

input: Return reported GI50; argument: COC(=O)[C@@H]1CCCN1CCN1CCC[C@H]1C(=O)OC
output: > 100 µM (inactive)
